Values from PubChem BioAssay (NCI)

System: MOLT-4 leukemia
assay-procedure: NCI tumour cell line growth inhibition, 48 h
Recorded TGI values for a group of molecules are listed next.

Use these answered entries as a reference point.
>>> result("N#Cc1c(-c2ccco2)cc(-c2ccc(NCc3nc4ccccc4[nH]3)cc2)nc1N")
"39.7 µM"
>>> result("CON(C)C(C#N)=C(C#N)C#N")
"> 10 µM"
>>> result("CC(=O)Oc1cc(OC(C)=O)c2c(=O)c3ccccc3[nH]c2c1")
"> 100 µM"
>>> result("C=C1C[C@](OC)([C@H](O)C(=O)N[C@@H](OC)[C@@H]2C[C@@H](O)C(C)(C)[C@@H](C[C@@H](COC)OC)O2)O[C@H](C)[C@@H]1C")
"> 1 µM"
>>> result("OCCCN=NNc1ccc(-c2nc3ccccc3[nH]2)cc1")
"> 100 µM"
>>> result("CC(=O)N1CC(Nc2ccc(OC(F)(F)F)cc2)=CC1=O")
"> 100 µM"

Query: TGI; subject: N/N=C1\C(=O)N(C2CCCCC2)C(=O)C1C(=O)NC1CCCCC1 (stereo not given)
Result: > 100 µM

Query: TGI; subject: "CCOC(=O)c1sc2nc3sc(N=Nc4ccc(Cl)cc4)c(O)n3c(=S)c2c1C"
Result: > 100 µM

Query: TGI; subject: "CC(C)CCOc1ccc(-c2n[nH]c(C(F)(F)F)c2-c2cncc(C#N)c2)c(O)c1"
Result: 12.7 µM

Query: TGI; subject: "O=C(/C=C/c1ccc(Cl)cc1)Oc1ccc(/C=C2\CCCCC2=O)cc1"
Result: 73.9 µM
